Test system: NCI-H226 lung
METHOD_DESCRIPTION: NCI-60 one-dose screen, 48 h
DETAILS: 10 µM unless noted
The panel holds about 83,000 compounds, 20% with a hit somewhere; the sample as a whole holds those more often. Calls of active or inactive are those of the source. The calls were made as follows: active = growth percent below 10; inactive = the rest.
Select the correct class. Options are active, inactive and nothing else.

N[C@@H]1CCC[C@H]1NCCCCN1C(=O)c2cccc3cccc(c23)C1=O ... inactive
CCOC(=O)C(=CNc1ccccc1[N+](=O)[O-])C(=O)OCC ... inactive
CSc1ncc(C)c(Nc2ccc(Cl)cc2)n1 ... inactive
Cc1cc(C(c2ccccc2)c2ccccc2)ccc1NS(=O)(=O)c1ccccc1 ... inactive
CC12CC(C#N)CCC1O2 (centres undefined) ... inactive
Cn1ccc(Cc2cnc(N)s2)n1 ... inactive

Write down the call the test reported for this compound. Item: O=C(CCc1nc(-c2cccc(Cl)c2)no1)Nc1ccccn1
inactive

Write down the call the test reported for this compound. Item: CN1C(=O)CCC(N2C(=O)c3cccc(NCCOCCOCCNC(=O)c4cc5c(o4)C(=O)c4ccccc4C5=O)c3C2=O)C1=O (centres undefined)
active

Write down the call the test reported for this compound. Item: COC(=O)CNC(=O)C(=O)c1c(O)c(O)c(C(C)C)c2cc(C)c(-c3c(C)cc4c(C(C)C)c(O)c(O)c(C(=O)C(=O)NCC(=O)OC)c4c3O)c(O)c12
inactive

Write down the call the test reported for this compound. Item: COc1cc2c(cc1OC)-c1ccc3cc4c(cc3c1N(CCN(C)C)C2)OCO4
active

Write down the call the test reported for this compound. Item: NC(=Nc1ccc(N)cc1)C(N)=Nc1ccc(N)cc1
inactive

Write down the call the test reported for this compound. Item: C=C1C(=O)O[C@H]2[C@H]1CC/C(C(=O)NCCCCCCCCNC(=O)/C1=C/CC[C@@]3(C)O[C@H]3[C@H]3OC(=O)C(=C)[C@@H]3CC1)=C\CC[C@@]1(C)O[C@@H]21
inactive

====

Tested on: SNB-75 CNS
METHOD_DESCRIPTION: NCI-60 one-dose screen, 48 h (100 = growth as untreated, 0 = no growth, -100 = all killed)
DETAILS: 10 µM unless noted
The panel holds about 83,000 compounds, 20% with a hit somewhere; the sample as a whole holds those more often.
ASSAY_ENDPOINT: growth (%)
The answer is to be given in %; state only the numeric part.

Some compounds with recorded growth:
CCN(CC)CC(O)CNc1c2ccc(Cl)cc2nc2ccc(OC)cc12 (stereo not drawn) ... 58.4
C[C@@H]1CC[C@@H]2[C@@H]1[C@H](OC(=O)/C=C/c1ccccc1)[C@]1(CCCOCCOCCOCCOC(=O)CCCC[C@@H]3SC[C@@H]4NC(=O)N[C@@H]43)C[C@@H](OC(=O)CO)[C@@]2(C)O1 ... 88.8
Clc1ccc2c(NCCCN3CCN(c4nc(N5CCOCC5)nc5ccccc45)CC3)ccnc2c1 ... 89.4
CCCN1CCN(c2ccc3nc(-c4ccc5nc(-c6cc(OC)c(OC)c(OC)c6)[nH]c5c4)[nH]c3c2)CC1 ... 43.6
COc1cc(-c2cc(-c3ccc(Nc4nc(Nc5ccccc5)nc(Nc5ccc(Cl)cc5)n4)cc3)nc(N)n2)cc(OC)c1OC ... 56.2
COc1ccc(Oc2nc(Nc3ccc(N4CCCCC4)nc3)ncc2NC(=O)c2cc(OC)cc(OC)c2)cc1 ... 34.1
Cc1nn(-c2ccccc2)c2c1C(c1ccc([N+](=O)[O-])cc1)C(C#N)=C(N)O2 (stereo not drawn) ... 87.7
NC(N)=N/N=C/c1ccc(Br)cc1 ... 34

Below: the item to evaluate.
Answer with the recorded growth for the compound listed here: COc1cc2nc(Nc3ccc(F)cc3)nc(N)c2cc1OC
103

====

System: DU-145 prostate
METHOD_DESCRIPTION: NCI-60 one-dose screen, 48 h (100 = growth as untreated, 0 = no growth, -100 = all killed)
DETAILS: 10 µM unless noted
About 83,000 compounds went through this panel and 20% of them were active in at least one assay; those are over-represented in the sample as a whole.
ASSAY_ENDPOINT: growth (%)
The answer is to be given in %; state only the numeric part.

Some compounds with recorded growth:
COC(=O)/C(=C\c1ccc(OC)cc1)C(=O)N1c2ccccc2Sc2ccccc21 ... 78.5
C=C1C(=O)O[C@H]2[C@H]1CC/C(COC(=O)/C=C\C(=O)NCc1ccc(Cn3c(=O)sn(-c4ccc(OC)cc4)c3=O)cc1)=C\CC[C@@]1(C)O[C@@H]21 ... -84
Clc1ccc2c(NCCCN3CCN(c4nc(-n5ccnc5)nc5ccccc45)CC3)ccnc2c1 ... 93.3
O=C1Nc2ccccc2/C1=N/N=C/c1c[nH]c2ccccc12 ... 58.3
COc1ccc(/C(C)=C(\c2ccc(Cl)cc2)c2ccc(OCCN(C)C)cc2)cc1F ... 79.5

Answer with the recorded growth for the compound listed here: N#Cc1c(N)nc2c(nnn2-c2cccc(C(F)(F)F)c2)c1N
99

Answer with the recorded growth for the compound listed here: CN(C)S(=O)(=O)n1cnc([C@@H]2[C@@H]3C(=O)OC[C@@H]3C[C@]23N=CN(Cc2ccccc2)C3=O)c1
111

Answer with the recorded growth for the compound listed here: COc1ccc(-c2nnc(-c3ccc4c(c3)nc(-c3ccccc3)n4C3CCCCC3)o2)cc1
71.7

====

Tested on: M14 melanoma
METHOD_DESCRIPTION: NCI-60 one-dose screen, 48 h
DETAILS: 10 µM unless noted
About 83,000 compounds went through this panel and 20% of them were active in at least one assay; those are over-represented in the sample as a whole. Calls of active or inactive are those of the source. How the source made its calls: active means growth percent below 10; inactive means the rest.
Select the correct class. Options are active, inactive and nothing else.

Solved cases below.
COc1ccccc1NC(=O)Nc1ccc(-c2nc3ccccc3o2)cc1 ... inactive
C=C1C(=O)O[C@H]2[C@H]1CC/C(COC(=O)NCc1ccc(Cn3c(=O)sn(CCCCl)c3=O)cc1)=C\CC[C@@]1(C)O[C@@H]21 ... active
C=C1C(=O)O[C@H]2[C@H]1CC/C(Cn1cc(CNCCc3c[nH]c4ccccc34)nn1)=C\CC[C@@]1(C)O[C@@H]21 ... inactive
COC(=O)CCCNC(=O)C(=O)c1c(O)c(O)c(C(C)C)c2cc(C)c(-c3c(C)cc4c(C(C)C)c(O)c(O)c(C(=O)C(=O)NCCCC(=O)OC)c4c3O)c(O)c12 ... active
CSc1nc(N)c(CNC(C)c2ccccc2)c(=O)n1C (stereo not given) ... inactive
CCn1c(Sc2nnc(NC(=O)CSC(=S)N3CCCCC3)s2)nc2c1c(=O)n(C)c(=O)n2C ... inactive
OC(COc1cccc2ccccc12)CN1CCN(c2ccccc2)CC1 (stereo not given) ... inactive
O=C1N/C(=N/O)S/C1=C/c1cn(-c2ccccc2)nc1-c1ccccc1 ... inactive

Then this compound:
Write down the call the test reported for this compound. Item: O=C1C(Cl)C(c2ccccc2Cl)N1n1cnnc1 (stereo not given)
inactive

====

System: HCC-2998 colon
METHOD_DESCRIPTION: NCI-60 one-dose screen, 48 h (100 = growth as untreated, 0 = no growth, -100 = all killed)
DETAILS: 10 µM unless noted
About 83,000 compounds went through this panel and 20% of them were active in at least one assay; those are over-represented in the sample as a whole.
ASSAY_ENDPOINT: growth (%)
The answer is to be given in %; state only the numeric part.

Some compounds with recorded growth:
O=C(/C=C/C12c3ccccc3C(c3ccccc31)C1C(=O)NC(=O)C12)c1ccccc1 (stereo not given) ... 10.4
CNC(=O)NCC1OC(n2cnc3c(NC(=O)Nc4ccccc4)ncnc32)C2OC(C)(C)OC12 (stereo not given) ... 95.5

Answer with the recorded growth for the compound listed here: C[C@H]1[C@H](C)CC[C@]2(C(=O)N3CCN(C)CC3)CC[C@]3(C)C(=CC[C@@H]4[C@@]5(C)C/C(=C/c6cccnc6)C(=O)C(C)(C)[C@@H]5CC[C@]43C)[C@H]12
-92.3

Answer with the recorded growth for the compound listed here: Cc1cn(C2CCCCC2)c(=O)[nH]c1=O
112

Answer with the recorded growth for the compound listed here: O=[N+]([O-])c1ccccc1C(O)Cc1ccc2ccccc2n1 (stereo not given)
114

Answer with the recorded growth for the compound listed here: OC(CBr)c1ccnc2ccccc12 (stereo not given)
103

Answer with the recorded growth for the compound listed here: C=C(C)[C@@H]1CC[C@]2(CO)CC[C@]3(C)[C@H](CC[C@@H]4[C@@]5(C)C=C(C#N)C(=O)C(C)(C)[C@@H]5CC[C@]43C)[C@@H]12
8.97

Answer with the recorded growth for the compound listed here: CC(C)(C)c1ccc(C(=O)Nc2sc3c(c2C(N)=O)CCC(=O)C3)cc1
17.1

Answer with the recorded growth for the compound listed here: Cc1ccc(S(=O)(=O)N(CC[C@@H]2C[C@H]2c2cc3ccccc3o2)C(=O)NC2CCCCC2)cc1
101
